Data provenance: PubChem BioAssay

Reported growth inhibition values for the following molecules.
Test Protocol: inhibition of 3D7 malaria parasite growth – strain 3D7 (AID 2306);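 note: 0% = DMSO wells and 100% = chloroquine plus artemisinin control wells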
Condition Summary: P. falciparum 3D7 erythrocytic growth, LDH absorbance, 72 h; at 2 µM; stronger effect = higher value
Write the value in % as a bare number.

Before answering, review these 3 worked examples.
>>> assay_result("CN(C)c1ccc(CN2CCC(NC(=O)c3ccc(-c4cccc(Cl)c4)s3)CC2)cc1")
93
>>> assay_result("COc1ccc(C=CC(=O)NC(=O)c2ccccc2OC(=O)c2ccccc2)cc1OC")
87
>>> assay_result("Cc1cc(C)c(C(=O)Nc2ccc3nc(C)cc(N)c3c2)c(C)c1")
84

Please fill in: growth inhibition reported for "CCN(CCCN1CCCCC1)c1cc(C)nc(Nc2cccc(C(F)(F)F)c2)n1" = 102

Please fill in: growth inhibition reported for "COc1ccc(N2CCN(CCCC/C=C/c3ccc(NC(=O)c4cc(Cl)cc(Cl)c4)cc3)CC2)c(OC)c1" = 99

Please fill in: growth inhibition reported for "COc1cccc(CNC(=O)c2cc(CNCc3ccccc3)ccc2-c2cccc(CNCc3ccc(-c4ccccc4)cc3)c2)c1" = 95

Please fill in: growth inhibition reported for "O=C(Nc1cccnc1)c1ccc(-c2cc3ccncc3cc2OC2CCNCC2)s1" = 97

Please fill in: growth inhibition reported for "COc1ccc2nccc(N3CCC(O)(CCNCc4ccc5c(n4)NC(=O)CS5)CC3)c2n1" = 99

Please fill in: growth inhibition reported for Nc1nc2c(ncn2COC2COP(=O)(O)OC2)c(=O)[nH]1 (stereo not given) = 81

Please fill in: growth inhibition reported for "COc1ccc(-c2ncnc(C(F)(F)F)c2-c2ccc(Cl)cc2)c(O)c1" = 100
